measurement.type: melting point

Below, each entry is followed by its recorded melting point result.
>>> assay_value("CC(C)NC(=O)c1cc(Cl)cc(Cl)c1NC(=O)c1cc(Cl)nn1-c1ncccc1Cl")
"197 to 199 °C"
>>> assay_value("CNC(=O)c1cc(Cl)cc(C)c1NC(=O)c1cc(Cl)nn1-c1ncccc1Cl")
"225 to 226 °C"

Problem: Which melting point is reported for this compound? CNC(=O)c1cc(I)cc(C)c1NC(=O)c1cc(Cl)nn1-c1ncccc1Cl
Result: 233 to 234 °C

Problem: Cool, now CCNC(=O)c1cc(Br)cc(Br)c1NC(=O)c1cc(Br)nn1-c1ncccc1Cl
Result: 196 to 197 °C

Problem: // query: CCNC(=O)c1cc(Br)cc(Br)c1NC(=O)c1cc(Cl)nn1-c1ncccc1Cl
Result: 192 to 194 °C

Problem: And the next one, CCNC(=O)c1cc(Cl)cc(Cl)c1NC(=O)c1cc(Br)nn1-c1ncccc1Cl ?
Result: 214 to 215 °C

Problem: What about CC(C)(C)NC(=O)c1cc(Br)cc(Br)c1NC(=O)c1cc(Br)nn1-c1ncccc1Cl ?
Result: 194 to 196 °C

Problem: # repeat for CC(C)(C)NC(=O)c1cc(Br)cc(Cl)c1NC(=O)c1cc(C(F)(F)F)nn1-c1ncccc1Cl
Result: 143 to 145 °C

Problem: Next: Cc1cc(I)cc(C(=O)NC(C)(C)C)c1NC(=O)c1cc(Cl)nn1-c1ncccc1Cl
Result: 228 to 229 °C

Problem: Now consider CC(C)NC(=O)c1cc(Cl)cc(Cl)c1NC(=O)c1cc(C(F)(F)F)nn1-c1ncccc1Cl and answer again.
Result: 200 to 201 °C

Problem: Proceed to CCNC(=O)c1cc(Cl)cc(C)c1NC(=O)c1cc(C(F)(F)F)nn1-c1ncccc1Cl
Result: 163 to 164 °C

Problem: Let us now turn to CNC(=O)c1cc(Cl)cc(Cl)c1NC(=O)c1cc(Cl)nn1-c1ncccc1Cl
Result: 205 to 206 °C

Problem: Then CNC(=O)c1cc(Br)cc(C)c1NC(=O)c1cc(Br)nn1-c1ncccc1Cl ?
Result: 147 to 149 °C

###

measurement.type: melting point

>>> assay_value("CC(C)NC(=O)c1cc(Cl)cc(Cl)c1NC(=O)c1cc(OCC(F)(F)F)nn1-c1ncccc1Cl")
"232 to 235 °C"

Problem: # input compound: Cc1cc(Br)cc(C(=O)NC(C)(C)C)c1NC(=O)c1cc(Cl)nn1-c1ncccc1Cl ; wanted: its melting point
Result: 224 to 225 °C

Problem: Same thing, different compound: CNC(=O)c1cc(Br)cc(Br)c1NC(=O)c1cc(Cl)nn1-c1ncccc1Cl
Result: 188 to 190 °C

Problem: Also, Cc1cc(Cl)cc(C(=O)NC(C)(C)C)c1NC(=O)c1cc(Br)nn1-c1ncccc1Cl please.
Result: 159 to 161 °C

Problem: Quick one: CN(C)C(=O)c1cc(Cl)cc(Cl)c1NC(=O)c1cc(Cl)nn1-c1ncccc1Cl
Result: 231 to 232 °C

###

measurement.type: melting point

Known melting point results, listed for orientation:
>>> assay_value("Cc1cc(Br)cc(C(=O)NC(C)C)c1NC(=O)c1cc(Br)nn1-c1ncccc1Cl")
"185 to 187 °C"
>>> assay_value("CNC(=O)c1cc(Cl)cc(Cl)c1NC(=O)c1cc(OCC(F)(F)F)nn1-c1ncccc1Cl")
"192 to 195 °C"
>>> assay_value("Cc1cc(Br)cc(C(=O)NC(C)C)c1NC(=O)c1cc(C(F)(F)F)nn1-c1ncccc1Cl")
"197 to 198 °C"
>>> assay_value("CN(C)C(=O)c1cc(Br)cc(Br)c1NC(=O)c1cc(Cl)nn1-c1ncccc1Cl")
"153 to 155 °C"

Now let's try a different one.
Problem: Which value of melting point has been reported for CCNC(=O)c1cc(I)cc(C)c1NC(=O)c1cc(Cl)nn1-c1ncccc1Cl in the records?
Result: 196 to 197 °C

###

The molecules listed here are annotated with their melting point.

Worked cases, answers included:
>>> assay_value("Cc1cc(Br)cc(C(=O)NC(C)(C)C)c1NC(=O)c1cc(Br)nn1-c1ncccc1Cl")
"215 to 221 °C"
>>> assay_value("CC(C)(C)NC(=O)c1cc(Cl)cc(Cl)c1NC(=O)c1cc(Br)nn1-c1ncccc1Cl")
"179 to 180 °C"

Problem: Dear colleague, I am looking for the recorded melting point of the following molecule: CN(C)C(=O)c1cc(Cl)cc(Cl)c1NC(=O)c1cc(Br)nn1-c1ncccc1Cl
Result: 216 to 218 °C

Problem: Similarly, CN(C)C(=O)c1cc(Br)cc(Br)c1NC(=O)c1cc(Br)nn1-c1ncccc1Cl ?
Result: 189 to 190 °C

Problem: And for CCNC(=O)c1cc(Br)cc(C)c1NC(=O)c1cc(C(F)(F)F)nn1-c1ncccc1Cl ?
Result: 192 to 193 °C

Problem: Entry CC(C)NC(=O)c1cc(Br)cc(Br)c1NC(=O)c1cc(Cl)nn1-c1ncccc1Cl please
Result: 197 to 199 °C

Problem: What about CC(C)NC(=O)c1cc(Cl)cc(Cl)c1NC(=O)c1cc(Br)nn1-c1ncccc1Cl ?
Result: 188 to 190 °C

Problem: Also CNC(=O)c1cc(I)cc(C)c1NC(=O)c1cc(C(F)(F)F)nn1-c1ncccc1Cl ?
Result: 199 to 200 °C

Problem: Then what about the molecule CCNC(=O)c1cc(Cl)cc(C)c1NC(=O)c1cc(OCC(F)(F)F)nn1-c1ncccc1Cl ?
Result: 205 to 207 °C

Problem: Follow-up item: Cc1cc(Cl)cc(C(=O)NC(C)C)c1NC(=O)c1cc(OCC(F)(F)F)nn1-c1ncccc1Cl
Result: 217 to 218 °C

Problem: Same thing, different molecule: Cc1cc(Cl)cc(C(=O)NC(C)(C)C)c1NC(=O)c1cc(C(F)(F)F)nn1-c1ncccc1Cl
Result: 223 to 225 °C

Problem: Same for CNC(=O)c1cc(Br)cc(Br)c1NC(=O)c1cc(Br)nn1-c1ncccc1Cl
Result: 166 to 168 °C

Problem: Same again, this time with CN(C)C(=O)c1cc(Cl)cc(Cl)c1NC(=O)c1cc(C(F)(F)F)nn1-c1ncccc1Cl
Result: 225 to 227 °C

Problem: What do we get for CCNC(=O)c1cc(Br)cc(C)c1NC(=O)c1cc(Cl)nn1-c1ncccc1Cl ?
Result: 192 to 194 °C

Problem: Continue with CC(C)(C)NC(=O)c1cc(Br)cc(Br)c1NC(=O)c1cc(Cl)nn1-c1ncccc1Cl
Result: 210 to 212 °C

Problem: Try this molecule next: CC(C)(C)NC(=O)c1cc(Br)cc(Br)c1NC(=O)c1cc(C(F)(F)F)nn1-c1ncccc1Cl
Result: 246 to 247 °C

Problem: Consider next the molecule CC(C)(C)NC(=O)c1cc(Cl)cc(Cl)c1NC(=O)c1cc(C(F)(F)F)nn1-c1ncccc1Cl in the same way.
Result: 170 to 172 °C

Problem: Now give it for CCNC(=O)c1cc(I)cc(C)c1NC(=O)c1cc(C(F)(F)F)nn1-c1ncccc1Cl too.
Result: 199 to 200 °C

Problem: Likewise for Cc1cc(I)cc(C(=O)NC(C)C)c1NC(=O)c1cc(C(F)(F)F)nn1-c1ncccc1Cl ?
Result: 188 to 189 °C

Problem: Lookup CN(C)C(=O)c1cc(Br)cc(Br)c1NC(=O)c1cc(C(F)(F)F)nn1-c1ncccc1Cl
Result: 228 to 229 °C

Problem: Would you mind doing CC(C)NC(=O)c1cc(Br)cc(Br)c1NC(=O)c1cc(C(F)(F)F)nn1-c1ncccc1Cl as well?
Result: 192 to 193 °C

Problem: Next record, please: CNC(=O)c1cc(Br)cc(C)c1NC(=O)c1cc(Cl)nn1-c1ncccc1Cl
Result: 140 to 141 °C

Problem: Now this one: CNC(=O)c1cc(Cl)cc(Cl)c1NC(=O)c1cc(C(F)(F)F)nn1-c1ncccc1Cl
Result: 155 to 157 °C

###

We begin with a simple list: items and their reported melting point.

Examples with answers:
>>> assay_value("Cc1cc(Br)cc(C(=O)NC(C)(C)C)c1NC(=O)c1cc(C(F)(F)F)nn1-c1ncccc1Cl")
"247 to 248 °C"
>>> assay_value("CCNC(=O)c1cc(Cl)cc(C)c1NC(=O)c1cc(Cl)nn1-c1ncccc1Cl")
"199 to 200 °C"
>>> assay_value("Cc1cc(I)cc(C(=O)NC(C)C)c1NC(=O)c1cc(Br)nn1-c1ncccc1Cl")
"191 to 192 °C"
>>> assay_value("CC(C)(C)NC(=O)c1cc(Cl)cc(Cl)c1NC(=O)c1cc(Cl)nn1-c1ncccc1Cl")
"172 to 173 °C"
>>> assay_value("Cc1cc(Cl)cc(C(=O)NC(C)(C)C)c1NC(=O)c1cc(Cl)nn1-c1ncccc1Cl")
"163 to 165 °C"

Problem: Please report the recorded melting point for CCNC(=O)c1cc(Cl)cc(Cl)c1NC(=O)c1cc(Cl)nn1-c1ncccc1Cl .
Result: 206 to 208 °C

Measured values drawn from patent US8993483B2 for this set.
